Data provenance: patent US6894059B1

Where a name gives a salt, the structure may show the parent alone.
Measured melting point accompanies every entry in the list below.

                                   compound    measurement
0  NC(=O)N(O)CCCCc1ccc(OCCCCN2CCN([C@H](c3ccccc3)c3ccc(Cl)cc3)CC2)cc1 (as salt: HCl) [Compound 76]  121 to 123 °C
1  NC(=O)N(O)CCC#Cc1ccc(OCCN2CCN([C@H](c3ccccc3)c3ccc(Cl)cc3)CC2)cc1[N+](=O)[O-] [Compound 90]    70 to 75 °C
2  NC(=O)c1cc(C#CCCN(O)C(N)=O)ccc1OCCN1CCN([C@H](c2ccccc2)c2ccc(Cl)cc2)CC1 [Compound 35]  156 to 158 °C
3  NC(=O)c1cc(C#CCCN(O)C(N)=O)ccc1OCCN1CCN([C@H](c2ccccc2)c2ccc(Cl)cc2)CC1 (as salt: citrate) [Compound 93]  153 to 156 °C
4  NC(=O)c1cc(CCCCN(O)C(N)=O)ccc1OCCCN1CCN([C@H](c2ccccc2)c2ccc(Cl)cc2)CC1 [Compound 84]  123 to 125 °C

Input: melting point lookup needed for NC(=O)N(O)CCC#Cc1ccc(OCCN2CCN(C(c3ccc(F)cc3)c3ccc(F)cc3)CC2)cc1[N+](=O)[O-] [Compound 87] , thanks.
Output: 65 to 70 °C

Input: Proceed to NC(=O)N(O)CCC#Cc1ccc(OCCCN2CCN(C(c3ccc(F)cc3)c3ccc(F)cc3)CC2)cc1 [Compound 83]
Output: 78 °C

Input: Would you mind doing NC(=O)c1cc(CCCCN(O)C(N)=O)ccc1OCCN1CCN(C(c2ccc(F)cc2)c2ccc(F)cc2)CC1 [Compound 85] as well?
Output: 138 to 140 °C

---

target: human 5-lipoxygenase enzyme (Homo sapiens); construct: Blood is drawn from normal human volunteers into tubes containing heparin; endogenous in cells; experiment: Inhibition of LTB4 production in human whole blood stimulated with calcium ionophore A23187; settings: A23187 50 μM, LTB4 by EIA, read-out: HWB IC50
Sequence (P09917 whole entry): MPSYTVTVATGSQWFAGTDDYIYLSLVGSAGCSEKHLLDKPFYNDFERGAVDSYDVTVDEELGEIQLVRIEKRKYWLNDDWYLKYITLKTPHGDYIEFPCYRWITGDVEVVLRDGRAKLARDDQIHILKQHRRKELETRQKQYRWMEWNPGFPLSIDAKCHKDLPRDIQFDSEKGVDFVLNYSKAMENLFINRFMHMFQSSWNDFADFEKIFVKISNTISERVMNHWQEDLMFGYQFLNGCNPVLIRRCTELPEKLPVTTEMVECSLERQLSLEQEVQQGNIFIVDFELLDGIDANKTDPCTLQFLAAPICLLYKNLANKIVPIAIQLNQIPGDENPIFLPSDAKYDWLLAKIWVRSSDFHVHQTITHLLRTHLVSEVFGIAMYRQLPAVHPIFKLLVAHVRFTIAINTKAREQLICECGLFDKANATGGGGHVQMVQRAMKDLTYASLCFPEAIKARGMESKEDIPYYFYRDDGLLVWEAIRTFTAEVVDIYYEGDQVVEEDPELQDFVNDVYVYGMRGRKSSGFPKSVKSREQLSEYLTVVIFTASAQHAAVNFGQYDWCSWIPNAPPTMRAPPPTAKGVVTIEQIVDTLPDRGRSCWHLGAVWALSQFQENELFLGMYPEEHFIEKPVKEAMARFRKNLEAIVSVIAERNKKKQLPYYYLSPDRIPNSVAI
property-measured: IC50 (µM)

A = NC(=O)N(O)CCOCCN1CCN([C@@H](c2ccccc2)c2ccc(Cl)cc2)CC1 [Compound 22]
B = C[C@@H](c1ccc(OCCN2CCN(C(c3ccc(F)cc3)c3ccc(F)cc3)CC2)cc1)N(O)C(N)=O (racemic) [Compound 11]
Input: Please compare: A and B . Report which one has the smaller IC50 value. State your choice using its label.
Output: A
(A: 1.47 µM, B: 3.63 µM)
